System: PEO-1
Assay: Excess HSA synergy score (sum over dose matrix of excess over highest single agent) (score (summed % response)); higher = less synergy / more antagonism (negative = synergy)
Conditions: 72 h; read-out: viability/apoptosis luminescence (CellTiter-Glo or Caspase3-Glo / not stated per table); matrix design: 6x6, 5-fold dilutions (primary screen)
Where a name gives a salt, the structure may show the parent alone. The full ranking holds about 1,500 compounds; the median of “Excess HSA synergy score (sum over dose matrix of excess over highest single agent)” is about 43, and the lowest 2% start at about -900. The sample holds the lowest values, similar compounds and a random draw of the others, so the mix is not that of the screen.
Binary call on Excess HSA synergy score with cut-off -100: strictly below means MET, and equality or higher means NOT MET.

{"columns": ["molecule", "measuredTarget", "category"],
 "data": [
  ["C[C@]12O[C@H](C[C@]1(O)CO)n1c3ccccc3c3c4c(c5c6ccccc6n2c5c31)CNC4=O [Lestaurtinib] + CC[C@H](NC(=O)[C@H](C)NC)C(=O)N1C[C@@H](O)C[C@H]1Cc1c(-c2[nH]c3cc(F)ccc3c2C[C@@H]2C[C@H](O)CN2C(=O)[C@H](CC)NC(=O)[C@H](C)NC)[nH]c2cc(F)ccc12", "PEO-1", "MET"],
  ["C[C@@]12OC(=O)[C@]1([C@@H](O)[C@@H]1C=CCCC1)NC(=O)[C@@H]2CCCl [Marizomib] + CC[C@H](NC(=O)[C@H](C)NC)C(=O)N1C[C@@H](O)C[C@H]1Cc1c(-c2[nH]c3cc(F)ccc3c2C[C@@H]2C[C@H](O)CN2C(=O)[C@H](CC)NC(=O)[C@H](C)NC)[nH]c2cc(F)ccc12", "PEO-1", "NOT MET"],
  ["CC(C)NC1CCn2c(=O)[nH]c3cccc(c32)C1O (configuration not stated) [Zilpaterol] + CC[C@H](NC(=O)[C@H](C)NC)C(=O)N1C[C@@H](O)C[C@H]1Cc1c(-c2[nH]c3cc(F)ccc3c2C[C@@H]2C[C@H](O)CN2C(=O)[C@H](CC)NC(=O)[C@H](C)NC)[nH]c2cc(F)ccc12", "PEO-1", "NOT MET"],
  ["Cc1n[nH]c2ccc(-c3cncc(OC[C@@H](N)Cc4c[nH]c5ccccc45)c3)cc12 + CC[C@H](NC(=O)[C@H](C)NC)C(=O)N1C[C@@H](O)C[C@H]1Cc1c(-c2[nH]c3cc(F)ccc3c2C[C@@H]2C[C@H](O)CN2C(=O)[C@H](CC)NC(=O)[C@H](C)NC)[nH]c2cc(F)ccc12", "PEO-1", "MET"],
  ["O=C(O)C(=O)CBr [3-Bromopyruvate] + CC[C@H](NC(=O)[C@H](C)NC)C(=O)N1C[C@@H](O)C[C@H]1Cc1c(-c2[nH]c3cc(F)ccc3c2C[C@@H]2C[C@H](O)CN2C(=O)[C@H](CC)NC(=O)[C@H](C)NC)[nH]c2cc(F)ccc12", "PEO-1", "NOT MET"],
  ["CC(C)CC(N(C)C)C1(c2ccc(Cl)cc2)CCC1 (configuration not stated) [Sibutramine hydrochloride] + CC[C@H](NC(=O)[C@H](C)NC)C(=O)N1C[C@@H](O)C[C@H]1Cc1c(-c2[nH]c3cc(F)ccc3c2C[C@@H]2C[C@H](O)CN2C(=O)[C@H](CC)NC(=O)[C@H](C)NC)[nH]c2cc(F)ccc12", "PEO-1", "NOT MET"],
  ["CC1(N2CCC(n3c([C@@H]4CCCNC4)nc4ccccc43)CC2)CCCCCCC1 + CC[C@H](NC(=O)[C@H](C)NC)C(=O)N1C[C@@H](O)C[C@H]1Cc1c(-c2[nH]c3cc(F)ccc3c2C[C@@H]2C[C@H](O)CN2C(=O)[C@H](CC)NC(=O)[C@H](C)NC)[nH]c2cc(F)ccc12", "PEO-1", "NOT MET"]
]}
